test system: KB 3-1; experiment: Inhibitory concentration against KB3-1 cell line was determined; type: functional, cell-based; conditions: Homo sapiens
log10 of IC50 values for the compounds below.
Please note: log10 values; quantity IC50; unit nM.

Reference set, count: 2
INSERT INTO measurements (smiles_structure, endpoint_name, result_value) VALUES
  ('COc1cc2c(=O)n(CCN3CCCCC3)c3c4cc5c(cc4ncc3c2cc1OC)OCO5', 'log10 of IC50', 0.60),
  ('COc1cc2c(=O)n(CCNC(C)C)c3c4cc5c(cc4ncc3c2cc1OC)OCO5', 'log10 of IC50', 0.70);

**Query** Recorded log10 of IC50 of COc1cc2c(=O)n(CCN3CCN(Cc4ccccc4)CC3)c3c4cc5c(cc4ncc3c2cc1OC)OCO5 , please.
**Result** 2.70

**Query** Recorded log10 of IC50 of COc1cc2c(=O)n(CCN(Cc3ccccc3)C(C)(C)C)c3c4cc5c(cc4ncc3c2cc1OC)OCO5 , please.
**Result** 2.28

**Query** Recorded log10 of IC50 of COc1cc2c(=O)n(CCN(C)C(C)C)c3c4cc5c(cc4ncc3c2cc1OC)OCO5 , please.
**Result** 0.48
